- System: SW-620 (Colon)
- PROCEDURE TEXT: Cytotoxicity in selected cancer cell lines (SRB, 48 h)
- Format: cell-based, human
QUANTITY: GI50 (µM)

molecule="COc1cc(C=CC(=O)c2ccc(F)cc2)ccc1OCCCCCOc1cc2c(cc1OC)C(=O)N1CCC[C@H]1C=N2 [6c]" quantity=GI50 u=µM value_measured=18.8
molecule="COc1cc(/C=C/C(=O)c2ccc(O)cc2)ccc1OCCCOc1cc2c(cc1OC)C(=O)N1CCC[C@H]1C=N2 [6g]" quantity=GI50 u=µM value_measured=26.9
molecule="COc1cc(C=CC(=O)c2c(C)nc3ccccc3c2C)ccc1OCCCCOc1cc2c(cc1OC)C(=O)N1CCC[C@H]1C=N2 [10b]" quantity=GI50 u=µM value_measured=25.9
molecule="COc1cc(C=CC(=O)c2ccc(F)cc2)ccc1OCCCCOc1cc2c(cc1OC)C(=O)N1CCC[C@H]1C=N2 [6b]" quantity=GI50 u=µM value_measured=13.5
molecule="COc1cc(C=CC(=O)c2c(C)nc3ccccc3c2C)ccc1OCCCOc1cc2c(cc1OC)C(=O)N1CCC[C@H]1C=N2 [10a]" quantity=GI50 u=µM value_measured=26.6

###

- Test system: UACC-62 (Melanoma)
- PROCEDURE TEXT: Cytotoxicity in selected cancer cell lines (SRB, 48 h)
- Format: cell-based, human
QUANTITY: GI50 (µM)

compound="COc1cc(C=CC(=O)c2ccc(F)cc2)ccc1OCCCCCOc1cc2c(cc1OC)C(=O)N1CCC[C@H]1C=N2 [6c]" u=µM value_measured=15.1
compound="COc1cc(C=CC(=O)c2c(C)nc3ccccc3c2C)ccc1OCCCCOc1cc2c(cc1OC)C(=O)N1CCC[C@H]1C=N2 [10b]" u=µM value_measured=22.5
compound="COc1cc(C=CC(=O)c2c(C)nc3ccccc3c2C)ccc1OCCCOc1cc2c(cc1OC)C(=O)N1CCC[C@H]1C=N2 [10a]" u=µM value_measured=15.1
compound="COc1cc(C=CC(=O)c2ccc(F)cc2)ccc1OCCCCOc1cc2c(cc1OC)C(=O)N1CCC[C@H]1C=N2 [6b]" u=µM value_measured=10
compound="COc1cc(/C=C/C(=O)c2ccc(O)cc2)ccc1OCCCOc1cc2c(cc1OC)C(=O)N1CCC[C@H]1C=N2 [6g]" u=µM value_measured=22.5

###

- Tested on: ACHN (Renal)
- PROCEDURE TEXT: Cytotoxicity in selected cancer cell lines (SRB, 48 h)
- Type: cell-based, human
QUANTITY: GI50 (µM)

compound="COc1cc(C=CC(=O)c2c(C)nc3ccccc3c2C)ccc1OCCCCOc1cc2c(cc1OC)C(=O)N1CCC[C@H]1C=N2 [10b]" value_measured=36.1
compound=COc1cc(C=CC(=O)c2ccc(F)cc2)ccc1OCCCCCOc1cc2c(cc1OC)C(=O)N1CCC[C@H]1C=N2 value_measured=42
compound=COc1cc(C=CC(=O)c2ccc(F)cc2)ccc1OCCCCOc1cc2c(cc1OC)C(=O)N1CCC[C@H]1C=N2 value_measured=43.4
compound="COc1cc(C=CC(=O)c2c(C)nc3ccccc3c2C)ccc1OCCCOc1cc2c(cc1OC)C(=O)N1CCC[C@H]1C=N2 [10a]" value_measured=32
compound=COc1cc(/C=C/C(=O)c2ccc(O)cc2)ccc1OCCCOc1cc2c(cc1OC)C(=O)N1CCC[C@H]1C=N2 value_measured=46.1

###

- Tested on: Leukemia cancer cell lines
- PROCEDURE TEXT: NCI in vitro anticancer screen, SRB assay, 48 h, panel average
- Type: cell-based, human
- CONDITION DESCRIPTION: average of six to eight cell lines, 48 h exposure
QUANTITY: Log GI50 (concentration in mol/L causing 50% growth inhibition) (mol/L)

molecule=COc1cc(/C=C/C(=O)c2ccc(O)cc2)ccc1OCCCOc1cc2c(cc1OC)C(=O)N1CCC[C@H]1C=N2 value_measured=−5.62
molecule=COc1cc(C=CC(=O)c2ccc(F)cc2)ccc1OCCCCOc1cc2c(cc1OC)C(=O)N1CCC[C@H]1C=N2 value_measured=−6.84
molecule=COc1cc(C=CC(=O)c2ccc(F)cc2)ccc1OCCCCCOc1cc2c(cc1OC)C(=O)N1CCC[C@H]1C=N2 value_measured=−6.59
molecule="COc1cc(C=CC(=O)c2c(C)nc3ccccc3c2C)ccc1OCCCOc1cc2c(cc1OC)C(=O)N1CCC[C@H]1C=N2 [10a]" value_measured=−6.88
molecule="COc1cc(C=CC(=O)c2c(C)nc3ccccc3c2C)ccc1OCCCCOc1cc2c(cc1OC)C(=O)N1CCC[C@H]1C=N2 [10b]" value_measured=−6.94

###

// values below are reported GI50
- Test system: A498 (Renal)
- PROCEDURE TEXT: Cytotoxicity in selected cancer cell lines (SRB, 48 h)
- Format: cell-based, human
QUANTITY: GI50 (µM)

molecule=COc1cc(C=CC(=O)c2ccc(F)cc2)ccc1OCCCCOc1cc2c(cc1OC)C(=O)N1CCC[C@H]1C=N2 value_measured=26.1
molecule="COc1cc(C=CC(=O)c2c(C)nc3ccccc3c2C)ccc1OCCCCOc1cc2c(cc1OC)C(=O)N1CCC[C@H]1C=N2 [10b]" value_measured=19.5
molecule="COc1cc(C=CC(=O)c2c(C)nc3ccccc3c2C)ccc1OCCCOc1cc2c(cc1OC)C(=O)N1CCC[C@H]1C=N2 [10a]" value_measured=20.1
molecule=COc1cc(C=CC(=O)c2ccc(F)cc2)ccc1OCCCCCOc1cc2c(cc1OC)C(=O)N1CCC[C@H]1C=N2 value_measured=20.1
molecule=COc1cc(/C=C/C(=O)c2ccc(O)cc2)ccc1OCCCOc1cc2c(cc1OC)C(=O)N1CCC[C@H]1C=N2 value_measured=29

###

- Tested on: RPMI-8226 (Leukemia)
- PROCEDURE TEXT: Cytotoxicity in selected cancer cell lines (SRB, 48 h)
- Format: cell-based, human
// values below are reported GI50
QUANTITY: GI50 (µM)

compound=COc1cc(/C=C/C(=O)c2ccc(O)cc2)ccc1OCCCOc1cc2c(cc1OC)C(=O)N1CCC[C@H]1C=N2 quantity=GI50 value_measured=46.8
compound=COc1cc(C=CC(=O)c2ccc(F)cc2)ccc1OCCCCCOc1cc2c(cc1OC)C(=O)N1CCC[C@H]1C=N2 quantity=GI50 value_measured=16.4
compound=COc1cc(C=CC(=O)c2ccc(F)cc2)ccc1OCCCCOc1cc2c(cc1OC)C(=O)N1CCC[C@H]1C=N2 quantity=GI50 value_measured=13
compound="COc1cc(C=CC(=O)c2c(C)nc3ccccc3c2C)ccc1OCCCOc1cc2c(cc1OC)C(=O)N1CCC[C@H]1C=N2 [10a]" quantity=GI50 value_measured=15
compound="COc1cc(C=CC(=O)c2c(C)nc3ccccc3c2C)ccc1OCCCCOc1cc2c(cc1OC)C(=O)N1CCC[C@H]1C=N2 [10b]" quantity=GI50 value_measured=13.8

###

- Tested on: human tumour cell lines
- PROCEDURE TEXT: In vitro cytotoxicity, mean graph midpoints (MG_MID) over human tumour cell lines
- Format: cell-based
- CONDITION DESCRIPTION: human tumour cell lines; 48 h exposure, SRB
// values below are reported Log10GI50 mean graph midpoint (MG_MID)
QUANTITY: Log10GI50 mean graph midpoint (MG_MID)

compound=COc1cc(C=CC(=O)c2ccc(F)cc2)ccc1OCCCCCOc1cc2c(cc1OC)C(=O)N1CCC[C@H]1C=N2 quantity="Log10GI50 mean graph midpoint (MG_MID)" value_measured=−6.86
compound=COc1cc(C=CC(=O)c2ccc(F)cc2)ccc1OCCCCOc1cc2c(cc1OC)C(=O)N1CCC[C@H]1C=N2 quantity="Log10GI50 mean graph midpoint (MG_MID)" value_measured=−6.83
compound="COc1cc(C=CC(=O)c2c(C)nc3ccccc3c2C)ccc1OCCCCOc1cc2c(cc1OC)C(=O)N1CCC[C@H]1C=N2 [10b]" quantity="Log10GI50 mean graph midpoint (MG_MID)" value_measured=−6.86
compound="COc1cc(C=CC(=O)c2c(C)nc3ccccc3c2C)ccc1OCCCOc1cc2c(cc1OC)C(=O)N1CCC[C@H]1C=N2 [10a]" quantity="Log10GI50 mean graph midpoint (MG_MID)" value_measured=−6.94
compound=COc1cc(/C=C/C(=O)c2ccc(O)cc2)ccc1OCCCOc1cc2c(cc1OC)C(=O)N1CCC[C@H]1C=N2 quantity="Log10GI50 mean graph midpoint (MG_MID)" value_measured=−5.78

###

- Test system: SF-539 (CNS)
- PROCEDURE TEXT: Cytotoxicity in selected cancer cell lines (SRB, 48 h)
- Format: cell-based, human
// values below are reported GI50
QUANTITY: GI50 (µM)

compound=COc1cc(C=CC(=O)c2ccc(F)cc2)ccc1OCCCCCOc1cc2c(cc1OC)C(=O)N1CCC[C@H]1C=N2 value_measured=30.3
compound=COc1cc(C=CC(=O)c2ccc(F)cc2)ccc1OCCCCOc1cc2c(cc1OC)C(=O)N1CCC[C@H]1C=N2 value_measured=29.6
compound=COc1cc(/C=C/C(=O)c2ccc(O)cc2)ccc1OCCCOc1cc2c(cc1OC)C(=O)N1CCC[C@H]1C=N2 value_measured=33.7
compound="COc1cc(C=CC(=O)c2c(C)nc3ccccc3c2C)ccc1OCCCCOc1cc2c(cc1OC)C(=O)N1CCC[C@H]1C=N2 [10b]" value_measured=33.7
compound="COc1cc(C=CC(=O)c2c(C)nc3ccccc3c2C)ccc1OCCCOc1cc2c(cc1OC)C(=O)N1CCC[C@H]1C=N2 [10a]" value_measured=30.3

src = patent US8461150B2
